test target: amylin receptor (rat basal forebrain membranes containing the nucleus accumbens and surrounding regions) (rat)
protocol description: competition with 125I-Bolton-Hunter rat amylin on rat basal forebrain membranes, filtration
observed property: IC50 (nM)

// worked examples, IC50 included
KCNTATCATQRLANFLVHSSNNFGPVLPPTNVGSNTY (2,7-disulfide; made on methylbenzhydrylamine resin (C-terminal amide not printed in so many words)) [25Pro26Val28,29Pro-h-Amylin] | 0.018
CNTATCATQRLANFLVRSSNNFGPILPSTNVGSNTY (2,7-disulfide; made on methylbenzhydrylamine resin (C-terminal amide not printed in so many words)) [des-1Lys18Arg25,28Pro-h-Amylin] | 0.082
KCNTATCATQRLANFLVRSSNNFGPILPPTNVGSNTY (2,7-disulfide; made on methylbenzhydrylamine resin (C-terminal amide not printed in so many words)) [18Arg25,28,29Pro-h-Amylin] | 0.021

(P) CNTATCATQRLANFLVRSSNNFGPILPPTNVGSNTY (2,7-disulfide; made on methylbenzhydrylamine resin (C-terminal amide not printed in so many words)) [des-1Lys18Arg25,28,29Pro-h-Amylin]
(Q) CNTATCATQRLANFLVHSSNNFGPILPSTNVGSNTY (peptide, from a related filing) [des-1Lys25,28Pro-h-Amylin]
(R) KCNTATCATQRLANFLVRSSNNFGPILPSTNVGSNTY (2,7-disulfide; made on methylbenzhydrylamine resin (C-terminal amide not printed in so many words)) [18Arg25,28Pro-h-Amylin]
**Query** Output the entries ranked by IC50 from maximum down to minimum. Enter labels, ranked according to the request.
**Result** Q, R, P
